Cited source: BindingDB's records for doi:10.1021/acs.jmedchem.5b00570

# target_or_system: Glutamate receptor ionotropic, NMDA 1/2C (Homo sapiens, UniProt Q05586+Q14957)
# Sequence (Q14957 whole entry, other chains not shown): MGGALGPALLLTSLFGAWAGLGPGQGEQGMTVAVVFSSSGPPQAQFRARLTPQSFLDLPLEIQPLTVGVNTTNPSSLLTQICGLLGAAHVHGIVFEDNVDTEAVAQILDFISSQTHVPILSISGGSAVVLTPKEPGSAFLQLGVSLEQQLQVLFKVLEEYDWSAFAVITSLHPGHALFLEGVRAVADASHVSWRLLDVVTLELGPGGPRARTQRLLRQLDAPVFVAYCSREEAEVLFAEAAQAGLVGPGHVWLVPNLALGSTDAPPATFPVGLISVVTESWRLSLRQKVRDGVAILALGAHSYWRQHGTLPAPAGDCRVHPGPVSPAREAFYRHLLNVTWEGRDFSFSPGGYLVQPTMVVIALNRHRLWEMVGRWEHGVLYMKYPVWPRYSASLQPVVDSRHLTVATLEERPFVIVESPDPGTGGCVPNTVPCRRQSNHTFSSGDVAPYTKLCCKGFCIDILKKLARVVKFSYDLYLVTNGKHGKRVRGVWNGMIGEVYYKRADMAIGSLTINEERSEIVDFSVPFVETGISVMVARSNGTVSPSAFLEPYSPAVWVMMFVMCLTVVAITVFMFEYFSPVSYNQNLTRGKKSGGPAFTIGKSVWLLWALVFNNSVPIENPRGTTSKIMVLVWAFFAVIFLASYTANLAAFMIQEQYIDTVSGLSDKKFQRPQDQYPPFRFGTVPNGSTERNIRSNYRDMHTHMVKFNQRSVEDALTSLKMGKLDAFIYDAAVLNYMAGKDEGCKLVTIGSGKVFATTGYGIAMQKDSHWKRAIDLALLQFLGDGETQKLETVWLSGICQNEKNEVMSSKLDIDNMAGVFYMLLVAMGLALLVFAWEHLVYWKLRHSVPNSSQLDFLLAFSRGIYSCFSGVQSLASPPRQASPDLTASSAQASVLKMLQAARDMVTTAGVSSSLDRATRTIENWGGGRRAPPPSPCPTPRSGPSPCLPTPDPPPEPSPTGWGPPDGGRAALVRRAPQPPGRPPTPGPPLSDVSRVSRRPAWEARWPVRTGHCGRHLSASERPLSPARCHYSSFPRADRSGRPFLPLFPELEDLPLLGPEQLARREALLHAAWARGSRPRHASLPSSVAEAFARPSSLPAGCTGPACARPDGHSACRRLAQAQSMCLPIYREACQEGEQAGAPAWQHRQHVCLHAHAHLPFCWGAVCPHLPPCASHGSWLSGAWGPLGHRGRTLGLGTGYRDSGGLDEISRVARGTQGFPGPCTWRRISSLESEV
# protocol_description: Inhibition of recombinant GluN1/GluN2C receptor (unknown origin) expressed in HEK293 cells assessed as inhibition of glutamate-evoked current by whole-cell voltage-clamp method
property_measured: pIC50
Just so you know, pIC50 here is -log10 of the concentration in molar units; reply with that number alone.

Known value: Glutamate receptor ionotropic, NMDA 1/2C (Homo sapiens, UniProt Q05586+Q14957) pIC50 of the compound C[C@H]1CC[C@H]2[C@@H]3CC[C@@H]4C[C@H](OS(=O)(=O)O)CC[C@]4(C)[C@H]3CC[C@]12C equals 6.40
